All figures here come from ChEMBL document CHEMBL2062484.

Experiment: Cytotoxicity against human Caco2 cells assessed as cell viability after 24 hrs by MTT assay
Assay type: cell-based
Details: Caco-2 cells
Overview of recorded CC50 at 24 h for various compounds
Numbers only; they are read as µM.

Ask: Look up and state reported CC50 at 24 h for O=C1NC(=O)C(c2ccc(Oc3ccccc3)cc2)(N2CCC(CO)CC2)C(=O)N1
Reply: 47.8

Ask: Look up and state reported CC50 at 24 h for O=C1NC(=O)C(c2ccc(Oc3ccccc3)cc2)(N2CCN(CCO[N+](=O)[O-])CC2)C(=O)N1
Reply: 26

Ask: Look up and state reported CC50 at 24 h for O=C1NC(=O)C(c2ccc(Oc3ccccc3)cc2)(N2CCCC(CO)C2)C(=O)N1 (stereo not given)
Reply: 33.1
